Ref: PubChem BioAssay AID1159580

Experiment: chemical genetic growth profiling, strain panel (AID 1159580);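 further: tested at 20 µM; growth read once vehicle control cultures reached saturation at 30 °C; lower values mean less growth of the strain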
Details: S. cerevisiae deletion strains, growth OD, locus YLR357W, strain rsc2, hits give low values
The campaign covered roughly 5,500 compounds. About 2,000 (36%) were called active. Not shown: some 18% with an inconclusive outcome. Some of the results follow.
// NB: equality with 1 counts as Not satisfied; only normalized growth strictly below is Satisfied

Field: example entries. Status: answers known.
{"COMPOUND": "CCCC1O[C@@H]2CC3C4CCC5=CC(=O)C=CC5(C)C4[C@@H](O)CC3(C)[C@]2(C(=O)CO)O1 (stereo partly specified)", "LABEL CLASS": "Not satisfied"}
{"COMPOUND": "O=[N+]([O-])c1cc([As](=O)(O)O)ccc1O", "LABEL CLASS": "Satisfied"}
{"COMPOUND": "C[C@H]1[C@H]2CCC3C4CC=C5C[C@@H](N(C)C)CC[C@]5(C)C4CC[C@@]32CN1C (stereo partly specified)", "LABEL CLASS": "Satisfied"}
{"COMPOUND": "CC(=O)c1c(O)c(C)c(O)c2c1OC1=CC(=O)C(C(C)=O)C(=O)C12C (stereo unspecified)", "LABEL CLASS": "Satisfied"}
{"COMPOUND": "O=[N+]([O-])c1cc(O)c(O)c([N+](=O)[O-])c1", "LABEL CLASS": "Not satisfied"}

I'd appreciate it if you could check whether Oc1c(I)cc(I)c2cccnc12 has normalized growth smaller than 1.
Satisfied

I'd appreciate it if you could check whether CC(=O)Oc1ccc(Cl)c2cccnc12 has normalized growth smaller than 1.
Satisfied
